Where do these numbers come from? They come from ChEMBL document CHEMBL1201862.

Tested on: SNB-19
test details: NCI tumour cell line growth inhibition, 48 h
The source made the active and inactive calls. Rule as the data show it: active = GI50 up to about 1.1 µM and inactive = higher.
experimental readout: GI50

>>> df
                                   compound       reported_value
0  COc1cccc(N2C(=O)/C(=C\c3ccccc3)SC2c2cc(OC)c(OC)c(OC)c2)c1 (configuration not stated)   77.6 µM (inactive)
1  CCOC(=O)c1cc(-c2ccc(OC)cc2)c([N+](=O)[O-])[nH]1   > 10 µM (inactive)
2        CCCCOc1ccc(NC(=N)Nc2ccc(Cl)cc2)cc1   2.74 µM (inactive)
3  CC(/C=N/N(C)C1=NCCCCN1)=N/N(C)C1=NCCCCN1  > 100 µM (inactive)
4  CC(C)NC(=O)OCc1c2c(n(C)c1COC(=O)NC(C)C)-c1cc(Cl)c(Cl)cc1CC2   37.8 µM (inactive)

Recorded result, `Cc1ccc(S(=O)(=O)NC(=O)NCC(N)=O)cc1` , GI50: > 100 µM (inactive)

Reported GI50 of `O=c1cccccc1O.O=c1cccccc1O.O=c1cccccc1O.[SiH4]` : > 100 µM (inactive)
